System: P. falciparum stage V gametocytes
Parameters: BacTiter-Glo ATP luminescence viability of purified stage V gametocytes in 384-well plates, per cent inhibition versus DMSO
RUN PARAMETERS: 48 h, 5 µM; inhibitor
Among all 13,000 compounds or so, about 3,200 (25%) showed an effect of 50% or more. The list shows a part of the results.
Collected % Inhibition values appear next to each entry.
MEASURED METRIC: % Inhibition (%)

{"columns": ["COMPOUND", "MEASURED METRIC", "RECORDED MEASUREMENT"],
 "data": [
  ["Cc1cccc2nc(-c3ccc(-c4cccc(NC(=O)Nc5ccc(Cl)c(Cl)c5)c4)s3)[nH]c12", "% Inhibition", -3.418],
  ["C=Cc1c(C2CCN(CCCCNC(=O)c3ccc(-c4ccc(C#N)cc4)cc3)CC2)ccc2c1CCCC2", "% Inhibition", 38.74],
  ["O=C(CSc1n[nH]c(=O)n1Cc1ccccc1)Nc1ccccc1-c1ccccc1", "% Inhibition", 0.01985],
  ["O=C(Nc1cccc(-c2ccc(-c3nc4cc(F)ccc4[nH]3)s2)c1)c1ccncc1", "% Inhibition", -9.65],
  ["O=C(NCCCCN1CCC(c2ccc3c(c2O)CCCC3)CC1)c1ccc(-c2ccc(Cl)cc2)cc1", "% Inhibition", 61.25],
  ["COc1ccc(NC(=O)Nc2cccc(-c3ccc(-c4nc5cccc(C)c5[nH]4)s3)c2)cc1", "% Inhibition", 1.322],
  ["Cc1nnsc1C(=O)Nc1cccc(-c2ccc(-c3nc4ccccc4[nH]3)s2)c1", "% Inhibition", 9.217],
  ["COC1CCC(C(=O)Nc2ccc(-c3cccc(-c4nc5ccc(C(F)(F)F)cc5[nH]4)c3)cc2)CC1 (stereo not shown)", "% Inhibition", -5.175],
  ["CC(=O)Nc1ccc(CN2CCC(N(C)c3cc(NC(=O)c4ccc(F)cc4)ccn3)CC2)cc1", "% Inhibition", -11.33],
  ["Cc1cc(OCCCN2CCC(NS(=O)(=O)c3ccc(C(F)(F)F)cc3)CC2)c2ccccc2n1", "% Inhibition", -32.21],
  ["Cc1nnsc1C(=O)Nc1cccc(-c2ccc(-c3nc4cc(F)ccc4[nH]3)s2)c1", "% Inhibition", 59.58],
  ["Cc1ccc(Cl)cc1NC(=O)c1c(-c2ccccc2Cl)noc1C", "% Inhibition", -15.67],
  ["O=C(NCCCCN1CCC(c2ccc3c(c2O)CCCC3)CC1)c1ccc(NC(=O)c2ccc(Cl)cc2)cc1", "% Inhibition", 88.57],
  ["CC(=O)c1ccc(-c2ccc(C(=O)NCCCCN3CCC(c4ccc5c(c4O)CCCC5)CC3)cc2)cc1", "% Inhibition", 60.63],
  ["CCC1(C)N=C(N)N=C(N)N1c1ccc(Cl)cc1 (stereo not shown)", "% Inhibition", 4.957],
  ["N#Cc1ccc(-c2ccc(C(=O)NCCCCN3CCC(c4cc(Br)c5c(c4O)CCCC5)CC3)cc2)cc1", "% Inhibition", -99.04]
]}
